# assayed system: ALK (Homo sapiens, UniProt Q9UM73)
# Construct: purchased Reaction Biology Corporation
# Sequence (Q9UM73 19-1620): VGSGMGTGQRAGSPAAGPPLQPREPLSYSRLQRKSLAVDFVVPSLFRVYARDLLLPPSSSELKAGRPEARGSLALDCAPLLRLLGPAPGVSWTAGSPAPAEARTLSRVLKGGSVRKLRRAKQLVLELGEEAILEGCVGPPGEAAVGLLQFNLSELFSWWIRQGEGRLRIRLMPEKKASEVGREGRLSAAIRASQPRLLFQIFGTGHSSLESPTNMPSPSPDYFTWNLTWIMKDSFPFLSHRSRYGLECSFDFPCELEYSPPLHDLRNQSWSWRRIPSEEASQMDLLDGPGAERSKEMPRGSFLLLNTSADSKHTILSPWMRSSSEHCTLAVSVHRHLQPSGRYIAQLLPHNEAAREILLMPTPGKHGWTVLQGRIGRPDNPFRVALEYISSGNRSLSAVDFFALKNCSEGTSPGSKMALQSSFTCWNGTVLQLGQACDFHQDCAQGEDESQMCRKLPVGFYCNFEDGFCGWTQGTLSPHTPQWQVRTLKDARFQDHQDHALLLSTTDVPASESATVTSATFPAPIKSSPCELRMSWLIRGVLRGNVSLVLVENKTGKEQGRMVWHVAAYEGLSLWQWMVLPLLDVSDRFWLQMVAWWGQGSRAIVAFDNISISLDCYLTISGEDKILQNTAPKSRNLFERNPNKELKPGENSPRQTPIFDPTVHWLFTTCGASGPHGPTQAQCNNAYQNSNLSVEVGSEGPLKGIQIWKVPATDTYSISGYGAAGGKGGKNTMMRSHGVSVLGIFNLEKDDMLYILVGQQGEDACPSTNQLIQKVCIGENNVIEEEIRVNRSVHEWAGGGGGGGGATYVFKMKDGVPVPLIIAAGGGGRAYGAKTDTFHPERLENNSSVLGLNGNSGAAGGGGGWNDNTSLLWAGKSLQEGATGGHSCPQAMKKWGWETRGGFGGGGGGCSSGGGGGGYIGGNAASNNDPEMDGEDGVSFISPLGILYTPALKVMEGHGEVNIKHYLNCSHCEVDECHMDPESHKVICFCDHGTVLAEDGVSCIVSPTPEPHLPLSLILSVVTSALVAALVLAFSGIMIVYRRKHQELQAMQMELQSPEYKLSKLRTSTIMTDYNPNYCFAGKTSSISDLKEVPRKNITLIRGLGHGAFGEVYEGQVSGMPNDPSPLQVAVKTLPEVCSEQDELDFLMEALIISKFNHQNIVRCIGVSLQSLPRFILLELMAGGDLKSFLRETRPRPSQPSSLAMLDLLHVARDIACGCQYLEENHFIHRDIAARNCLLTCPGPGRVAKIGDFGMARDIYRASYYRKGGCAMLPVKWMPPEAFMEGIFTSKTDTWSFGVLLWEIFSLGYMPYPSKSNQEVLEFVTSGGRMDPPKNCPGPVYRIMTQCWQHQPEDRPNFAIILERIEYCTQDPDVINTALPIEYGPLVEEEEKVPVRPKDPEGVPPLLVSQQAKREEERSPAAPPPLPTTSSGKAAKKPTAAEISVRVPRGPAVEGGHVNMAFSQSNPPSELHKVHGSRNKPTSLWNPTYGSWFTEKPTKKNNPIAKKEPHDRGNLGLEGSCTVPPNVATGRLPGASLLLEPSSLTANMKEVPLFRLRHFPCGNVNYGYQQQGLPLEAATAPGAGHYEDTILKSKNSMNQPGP
# test details: ALK in vitro enzymatic assay (radioisotope P81 filter-binding, Reaction Biology)
# Type: biochemical
# run parameters: 20 μM ATP; ten-dose IC50 mode, duplicate, average
Provide the reported IC50 of each item.
Numbers only, in nM.

Before answering, review these 2 worked examples.
molecule: CC(C)NC(=O)CCCn1/c(=N/C(=O)c2cc(F)cc(F)c2)[nH]c2cc(/C=C/C(=O)NO)ccc21
IC50 [nM]: 3730
--
molecule: CC(C)NC(=O)CCCn1/c(=N/C(=O)c2ccccc2)[nH]c2cc(/C=C/C(=O)NO)ccc21
IC50 [nM]: 5750

Each of the following entries comes with a recorded value; kindly state IC50 for each.
1. CC(C)NC(=O)C1CCC(n2c(=NC(=O)c3ccccc3)[nH]c3cc(C=CC(=O)NO)ccc32)CC1 (stereo not drawn)
2. CC(C)NC(=O)[C@H]1CC[C@@H](n2/c(=N/C(=O)c3ccccc3)[nH]c3ccc(/C=C/C(=O)NO)cc32)CC1
3. CC(C)NC(=O)[C@H]1CC[C@@H](n2/c(=N/C(=O)c3ccccc3)[nH]c3cc(NC(=O)CCCCCCC(=O)NO)ccc32)CC1

1: 16; 2: 5.2; 3: 15

FYI, the data here is from paper PMC10930102.
